- Method: in vitro
- Condition info: human, hela cells, % viability
Would you kindly list viability at 28.5 h, 10 µM for each of these compounds?

Enquiry: // viability at 28.5 h, 10 µM lookup, key: CCOC(=O)c1ccccc1NC(=O)CC1Nc2ccccc2NC1=O (centres unmarked)
Return: 91.3%

Enquiry: Same for "CCOC(=O)N1CCC(NC(=O)N2CCN(C3CCN(C)CC3)CC2)CC1"
Return: 92.2%

Enquiry: Same for CC(CC(=O)O)CC(=O)Nc1cccc(C(=O)O)c1 (centres unmarked)
Return: 99.1%

Enquiry: Same for "COc1ccc(Nc2ccc(-c3ccc4c(c3)OCO4)cn2)c(C)c1"
Return: 102%

Enquiry: Same for CC1CC(/N=C2/NCCS2)CC(C)(C)C1 (centres unmarked)
Return: 102%

###

- Method: in vitro
- Condition info: human, hela cells, % viability
Measurement kind: viability at 28.5 h, 10 µM (%)
A number alone suffices; assume %.

Enquiry: // viability at 28.5 h, 10 µM lookup, key: O=C(O)c1cc(-c2ccccn2)nc2ccccc12 [CBK262147K]
Return: 108

Enquiry: Same for "Oc1ccc(Br)cc1CN1CCN(Cc2cccc3ccccc23)CC1"
Return: 87

Enquiry: Same for "O=C(Nc1ccc(Cl)cc1)Nc1cc(S(=O)(=O)N2CCCC2)ccc1Cl"
Return: 98

Enquiry: Same for "Cc1ccc(S(=O)(=O)N2CCC(C(=O)O)CC2)cc1C(=O)O"
Return: 99.6

Enquiry: Same for "COc1ccc(-c2cc(C(=O)N[C@@H](C)c3ccccc3)cnc2-c2cccc(C)c2)cc1"
Return: 105

Enquiry: Same for "CN1C[C@@H](NC(=O)Nc2ccccc2)C[C@H]1c1nc(Cc2ccccc2)no1"
Return: 85.2

Enquiry: Same for "COC(=O)c1c(C)n[nH]c1COc1ccccc1"
Return: 92.1

Enquiry: Same for "Cc1cc(O)nc(-n2nc(C)cc2NC(=O)c2ccccc2)n1"
Return: 101

Enquiry: Same for "O=C(NC1(c2ccc(F)cc2)CCCC1)c1cnccn1"
Return: 85.1

Enquiry: Same for "O=C(Cc1cccs1)N1CCC(n2nc(C3CC3)ccc2=O)CC1"
Return: 78.6

Enquiry: Same for "O=C(NCc1cccnc1)c1cc(S(=O)(=O)N2CCCC2)c(Cl)cc1Cl"
Return: 108

Enquiry: Same for "CCN(CC)CCNC(=O)c1ccc(/C=N/O)nc1"
Return: 100

Enquiry: Same for "O=S(=O)(CC(F)(F)F)Nc1cccc(-c2nnn[nH]2)c1"
Return: 83.9

Enquiry: Same for "c1ccc2oc(CN3CCC(N4CCCCC4)CC3)cc2c1"
Return: 87.1

Enquiry: Same for "CC(C)Nc1nccnc1Sc1nc[nH]n1"
Return: 97.5

Enquiry: Same for "COc1cccc(C(=O)N2CCN(S(=O)(=O)c3ccc([N+](=O)[O-])cc3)CC2)c1"
Return: 96.9

Enquiry: Same for "Cc1cc(=O)[nH]c(SCc2cc(=O)c3ccccc3[nH]2)n1"
Return: 86.3

Enquiry: Same for CC(C)NC(=O)c1sc2ccccc2c1C1CCN(C(=O)CCc2ccccc2)C1 (centres unmarked)
Return: 99.2

Enquiry: Same for "CC(C)(C)OC(=O)CN1C(=O)N[C@@H]2CCCC[C@@H]21"
Return: 84.8

Enquiry: Same for Cn1ccc(C(=O)NC(Cc2ccsc2)c2cccnc2)n1 (centres unmarked)
Return: 107

Enquiry: Same for "FC(F)(F)c1cnc(Oc2ccc(-n3ccnc3)cc2)c(Cl)c1"
Return: 90.9

Enquiry: Same for Cc1c(Cl)cccc1CNC(=O)CC1SC(NCC2CCCCC2)=NC1=O (centres unmarked)
Return: 91.7

Enquiry: Same for CC1(C)CC2(CC(C)(C(=O)CSc3nnc(-c4ccccc4Br)[nH]3)OC2=O)C(=O)O1 (centres unmarked)
Return: 102

Enquiry: Same for O=C(NC1CCN(CC(F)(F)F)C1=O)c1ccnc(C2CC2)n1 (centres unmarked)
Return: 97

Enquiry: Same for "O=C(Cn1cnnn1)NCc1cccnc1OCC(F)(F)F"
Return: 96.1

Enquiry: Same for COc1ccc(-c2nn(-c3ccccc3)cc2/C=C2\SC(N3CC(C)OC(C)C3)=NC2=O)cc1F (centres unmarked)
Return: 100

Enquiry: Same for "CN1CCN(C(=O)c2ccccc2NC(=O)NC2CCCCC2)CC1"
Return: 94

Enquiry: Same for "Cc1cccc(C(=O)Nc2ccc(-c3nnc(-c4ccc(NC(=O)c5cccc(C)c5)cc4)o3)cc2)c1"
Return: 106

Enquiry: Same for "Cc1c(/C=C2\SC(=S)NC2=O)c2ccccc2n1Cc1ccccc1Cl"
Return: 101

Enquiry: Same for CCC(NS(=O)(=O)c1ccc(OC)cc1)C(=O)O (centres unmarked)
Return: 100

Enquiry: Same for O=C(NC(c1ccc(F)cc1)c1cnccn1)C1CCN(C(=O)c2ccco2)CC1 (centres unmarked)
Return: 94.3

Enquiry: Same for CC1(C)CC(NCC(O)COc2cc(C(C)(C)C)c(O)c(C(C)(C)C)c2)CC(C)(C)N1 (centres unmarked)
Return: 124

Enquiry: Same for "NC(=O)CN1CCC(Cc2ccccc2)CC1"
Return: 109

Enquiry: Same for "O=c1[nH]c2ccccc2n1CCCN1CCC2(CC1)CN(CCO)c1ccccc12"
Return: 97.4

Enquiry: Same for "CC(C)(C)c1oc(C(=O)O)cc1CN1CCCC1"
Return: 84.7

Enquiry: Same for "Cc1nc(=O)c(-c2ccccc2)c(C)n1-c1ccc(OCC(=O)O)cc1"
Return: 106

Enquiry: Same for "c1cncc(-c2cncc(NCCc3c[nH]c4ccccc34)n2)c1"
Return: 89.7

Enquiry: Same for "COc1ccc(C(=O)NCCc2nc3ccccc3[nH]2)cc1"
Return: 101

// data source = paper PMC12040169
